Reference source for all entries: the supplement of paper PMC10290057

Tested on: HCT116
protocol-details: efficacy (fitted maximal change in viability relative to DMSO control); higher = less cytotoxic (negative = loss of viability)
experimental-setup: 48 h
Would you kindly list efficacy for each of these compounds?
Report the value in % with no unit label.

stdin: Looking for the measured efficacy of C[C@@]12C(=O)OC(=O)[C@]1(C)[C@H]1CC[C@@H]2O1 , can you help?
stdout: -86.9

stdin: Looking for the measured efficacy of Cc1ccc([C@@H]2O[C@H](CO)[C@@H](O)[C@H](O)[C@H]2O)cc1Cc1ccc(-c2ccc(F)cc2)s1 , can you help?
stdout: -83.7

stdin: Looking for the measured efficacy of CN(C)C1=C(Br)C=C(C=C1)C\2NC3=C(\C4=C2C(=O)CC(C)(C)C4)C5=CC=CC=C5C=C3 (stereo not drawn) , can you help?
stdout: -31.2

stdin: Looking for the measured efficacy of C=CC(=O)Nc1cccc(Oc2nc(Nc3ccc(N4CCN(C)CC4)cc3)ncc2Cl)c1 , can you help?
stdout: -101

stdin: Looking for the measured efficacy of COCCOC(=O)C/1=C(C)/NC/2=C(C1C3=CC=CC(=C3)O)/C(=O)CC(C2)C4=C(OC)C=CC=C4 (stereo not drawn) , can you help?
stdout: -73.6

stdin: Looking for the measured efficacy of Cc1ccc(Nc2cc(-c3cccc(N4C(=O)c5ccccc5C4=O)c3)ncn2)cc1N[S+](C)(=O)[O-] , can you help?
stdout: -73.6

stdin: Looking for the measured efficacy of NC/1=N/C2=C([NH]C=N2)C(=S)N1 , can you help?
stdout: -85.8

stdin: Looking for the measured efficacy of COC[C@@H](NC(C)=O)C(=O)NCc1ccccc1 [Lacosamide] , can you help?
stdout: -14.4

----------
Would you kindly list AC50 cell viability for each of these compounds?
Test system: HCT116
protocol-details: AC50 cell viability (CellTiter-Glo); higher = less potent
experimental-setup: 48 h
Structures can show the parent of a compound that is named as a salt.
Report the value in nM with no unit label.

stdin: Looking for the measured AC50 cell viability of Cc1ccc([C@@H]2O[C@H](CO)[C@@H](O)[C@H](O)[C@H]2O)cc1Cc1ccc(-c2ccc(F)cc2)s1 , can you help?
stdout: 23500

stdin: Looking for the measured AC50 cell viability of CC1=CC=C2\N=C/3N(CC[C@@]3(O)C(=O)C2=C1)C4=CC=CC=C4 [(-)-Blebbistatin] , can you help?
stdout: 132

stdin: Looking for the measured AC50 cell viability of ClC1=CC=C2OC3=C(\N=C(NC3=O)\[C@@H]4CCCN4)C2=C1 [XL 413 hydrochloride] , can you help?
stdout: 14800

stdin: Looking for the measured AC50 cell viability of COC1=C(OC)C=C2C(=C1)C(=O)N(CCCN3CCOCC3)\C4=C2\C(=O)C5=C4C=C6OCOC6=C5 [Indotecan hydrochloride (LMP-400)] , can you help?
stdout: 2090

stdin: Looking for the measured AC50 cell viability of Cc1nc(Nc2ncc(C(=O)Nc3c(C)cccc3Cl)s2)cc(N2CCN(CCO)CC2)n1 , can you help?
stdout: 14800

stdin: Looking for the measured AC50 cell viability of Cc1cc(C(=O)N2CCN(c3cccc(Cl)c3)CC2)n(-c2ccccc2)n1 [XRP-44X] , can you help?
stdout: 2950

stdin: Looking for the measured AC50 cell viability of C/C=C(\C)C(=O)N[C@@H](c1ccccc1)[C@@H](O)C(=O)O[C@H]1C[C@@]2(O)[C@@H](OC(=O)c3ccccc3)[C@@H]3[C@]4(OC(C)=O)CO[C@@H]4C[C@H](O)[C@@]3(C)C(=O)[C@H](OC(C)=O)C(=C1C)C2(C)C , can you help?
stdout: 26.3

stdin: Looking for the measured AC50 cell viability of NC1=NC=CC2=C1N=C[N]2[C@@H]3\C=C(CO)/[C@@H](O)[C@H]3O , can you help?
stdout: 590

stdin: Looking for the measured AC50 cell viability of CCCOc1ccc2[nH]c(NC(=O)OC)nc2c1 , can you help?
stdout: 295

stdin: Looking for the measured AC50 cell viability of CC(C)[C@@H](N(CCCN)C(=O)C1=CC=C(C)C=C1)C/2=N/C3=CC(=CC=C3C(=O)N2CC4=CC=CC=C4)Cl , can you help?
stdout: 29.5

stdin: Looking for the measured AC50 cell viability of CN(C)c1ccc(-c2nc3c(N4CCN(CC(=O)Nc5nccs5)CC4)c(Cl)cnc3[nH]2)cc1 , can you help?
stdout: 723

stdin: Looking for the measured AC50 cell viability of C[C@@H](Oc1ccc2[nH]nc(/C=C/c3cnn(CCO)c3)c2c1)c1c(Cl)cncc1Cl , can you help?
stdout: 661

stdin: Looking for the measured AC50 cell viability of C/C1=C/C[C@@H](/C(C)=C/c2csc(C)n2)OC(=O)C[C@H](O)C(C)(C)C(=O)[C@H](C)[C@@H](O)[C@@H](C)CCC1 , can you help?
stdout: 16.6

stdin: Looking for the measured AC50 cell viability of CC(C)COCC(CN(Cc1ccccc1)c1ccccc1)N1CCCC1 (centres undefined) , can you help?
stdout: 16600

----------
Tested on: HCT116
protocol-details: efficacy (fitted maximal change in viability relative to DMSO control); higher = less cytotoxic (negative = loss of viability)
experimental-setup: 48 h
Everything with efficacy lower than -70% is Not met; everything else, including exactly -70%, is Met.

stdin: Determine whether this molecule has efficacy no lower than -70%: COc1cc([C@@H]2c3cc4c(cc3[C@@H](O[C@@H]3O[C@@H]5CO[C@@H](c6cccs6)O[C@H]5[C@H](O)[C@H]3O)[C@H]3COC(=O)[C@H]23)OCO4)cc(OC)c1O [Teniposide]
stdout: Not met

stdin: Determine whether this molecule has efficacy no lower than -70%: Cc1ccc([S+](=O)([O-])N[C@@H](Cc2ccccc2)C(=O)CCl)cc1
stdout: Not met

stdin: Determine whether this molecule has efficacy no lower than -70%: N[C@@H](CCC(=O)O)C(=O)N[C@@H](Cc1c[nH]c2ccccc12)C(=O)O [Oglufanide]
stdout: Met

stdin: Determine whether this molecule has efficacy no lower than -70%: OC1=CC2=C(C(=O)\C=C(/O2)C3=CC=CC=C3)C(=C1O)O
stdout: Met

stdin: Determine whether this molecule has efficacy no lower than -70%: CC#CC(=O)N1CCC[C@H]1c1nc(-c2ccc(C(=O)Nc3ccccn3)cc2)c2c(N)nccn12
stdout: Met

stdin: Determine whether this molecule has efficacy no lower than -70%: CCNC(=O)CCC/C=C\C[C@@H]1[C@@H](/C=C/C(O)CCc2ccccc2)[C@@H](O)C[C@@H]1O (stereo not given in full)
stdout: Met

stdin: Determine whether this molecule has efficacy no lower than -70%: O=C(NCC1CCCCN1)c1cc(OCC(F)(F)F)ccc1OCC(F)(F)F (stereo not given) [Flecainide acetate]
stdout: Met

stdin: Determine whether this molecule has efficacy no lower than -70%: Cc1cc(OCc2nnc(SC3CCCC3)n2-c2cccnc2)ccc1-c1ccc([S+](C)(=O)[O-])cc1
stdout: Not met

stdin: Determine whether this molecule has efficacy no lower than -70%: Nc1nc(N)c(N=O)c(OCC2CCCCC2)n1
stdout: Met

stdin: Determine whether this molecule has efficacy no lower than -70%: C[C@@]1(c2ncncc2F)NC(=O)c2cc(-c3cn[nH]c3)ccc21
stdout: Not met

stdin: Determine whether this molecule has efficacy no lower than -70%: FC1=CC=C(SC/2=N/N3\C=N/C(=O)/C(=C3/C=C2)C4=C(Cl)C=CC=C4Cl)C(=C1)F
stdout: Met

stdin: Determine whether this molecule has efficacy no lower than -70%: O=C(NOCC1CC1)c1ccc(F)c(F)c1Nc1ccc(I)cc1Cl
stdout: Not met

stdin: Determine whether this molecule has efficacy no lower than -70%: NC\1=N\C(=O)N(\C=C1)[C@@H]2O[C@H](CO)[C@@H](O)[C@H]2O
stdout: Met

stdin: Determine whether this molecule has efficacy no lower than -70%: COC[C@H](NC(=O)c1cnc(C)s1)C(=O)N[C@@H](COC)C(=O)N[C@@H](Cc1ccccc1)C(=O)[C@@]1(C)CO1
stdout: Not met

stdin: Determine whether this molecule has efficacy no lower than -70%: Cc1cc(Nc2nc(N[C@@H](C)c3ncc(F)cn3)ncc2Cl)n[nH]1
stdout: Met

stdin: Determine whether this molecule has efficacy no lower than -70%: CC(C)[C@H](C(=O)Nc1ccc(C(=O)NO)cc1)c1ccccc1
stdout: Met

stdin: Determine whether this molecule has efficacy no lower than -70%: CCC(=O)Nc1cccc(Oc2nc(Nc3ccc(N4CCN(C)CC4)cc3OC)ncc2Cl)c1
stdout: Met

stdin: Determine whether this molecule has efficacy no lower than -70%: COc1ccc2nc3[nH]nc(C)c3c(NCCOCCO)c2c1
stdout: Not met

stdin: Determine whether this molecule has efficacy no lower than -70%: CCOC1=CC=C(C=C1)N2C(=O)C3=CC=CN=C3/N=C2/[C@@H](C)N(CC4=CC=CN=C4)C(=O)CC5=CC=C(F)C(=C5)C(F)(F)F
stdout: Met

stdin: Determine whether this molecule has efficacy no lower than -70%: C=C[C@H]1CN2CCC1C[C@@H]2C(O)c1ccnc2ccc(OC)cc12 (stereo not given in full)
stdout: Met

stdin: Determine whether this molecule has efficacy no lower than -70%: O=C(Nc1cccc(Cl)c1)Nc1ncc(CCNc2ncnc3ccsc23)s1
stdout: Not met

stdin: Determine whether this molecule has efficacy no lower than -70%: CCc1cc(/C(C)=N/OCc2ccc(C3CCCCC3)c(C(F)(F)F)c2)ccc1CN1CC(C(=O)O)C1
stdout: Met

stdin: Determine whether this molecule has efficacy no lower than -70%: Nc1nc(OC(c2ccc(-c3cccc(F)c3)cc2)C(F)(F)F)cc(-c2ccc(C[C@H](N)C(=O)O)cc2)n1 (stereo not given in full)
stdout: Met

stdin: Determine whether this molecule has efficacy no lower than -70%: CNC(=O)Cn1cc(-c2ccc3c(c2)C(F)CC32NC(=O)N(CC(=O)N(Cc3ccc(F)cc3)[C@@H](C)C(F)(F)F)C2=O)cn1 (stereo not given in full)
stdout: Met

stdin: Determine whether this molecule has efficacy no lower than -70%: CCCCCCCCCCCCCCCC(=O)O[C@@H]1[C@@H](O)[C@@H](O)[C@@H]([C@H](NC(=O)[C@@H]2C[C@@H](CCC)CN2C)[C@H](C)Cl)O[C@@H]1SC.Cl [Clindamycin palmitate]
stdout: Met

stdin: Determine whether this molecule has efficacy no lower than -70%: CCCCN(CCCC)CC(O)c1cc(Cl)cc2c1-c1ccc(Cl)cc1/C2=C/c1ccc(Cl)cc1 (stereo not given)
stdout: Met

stdin: Determine whether this molecule has efficacy no lower than -70%: Cc1cc(-c2nc3cc(F)ccc3s2)ccc1NC(=O)[C@@H](N)CCCCN
stdout: Not met
